target: human recombinant serotonin (5-Hydroxytryptamine) 5-HT2A receptor (Homo sapiens, UniProt P28223); construct: expressed in transfected cells; host or cells: CHO-K1 cells; assay: Serotonin 5-HT2A radioligand binding ([3H]Ketanserin); details: percent inhibition of specific binding
Sequence (P28223 whole entry): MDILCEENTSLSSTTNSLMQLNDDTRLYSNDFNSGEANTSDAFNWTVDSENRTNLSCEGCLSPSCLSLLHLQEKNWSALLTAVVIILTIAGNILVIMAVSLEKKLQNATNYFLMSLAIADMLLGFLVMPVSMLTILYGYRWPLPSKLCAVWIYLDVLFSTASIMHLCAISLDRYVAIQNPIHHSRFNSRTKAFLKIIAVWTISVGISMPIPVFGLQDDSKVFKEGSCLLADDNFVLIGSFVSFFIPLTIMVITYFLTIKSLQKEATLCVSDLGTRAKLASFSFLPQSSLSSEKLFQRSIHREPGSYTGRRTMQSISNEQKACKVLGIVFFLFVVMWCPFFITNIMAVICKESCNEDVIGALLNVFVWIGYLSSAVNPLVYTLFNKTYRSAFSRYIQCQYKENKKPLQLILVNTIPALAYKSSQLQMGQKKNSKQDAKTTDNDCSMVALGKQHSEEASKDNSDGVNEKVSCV
PARAMETER MEASURED: Inhibition of ligand binding, Ser. 5-HT2A
Quick note: number first, unit second.

> print(dat)
                                smiles.data  reported.result
1  Cc1ccc2c(c1)c1c(n2CCC(=O)N2CCC(NC(=O)OC(C)(C)C)CC2)CCN(C)C1              19%
2     Cc1ccc2c(c1)c1c(n2CCc2cnccn2)CCN(C)C1              85%
3     Cc1ccc2c(c1)c1c(n2CCc2ccncc2)CCN(C)C1              81%
4  Cc1ccc2c(c1)c1c(n2CC(=O)N2CCN(C)CC2)CCN(C)C1               1%

For the 5 molecules below, give their Inhibition of ligand binding, Ser. 5-HT2A values.
1. Cc1ccc2c(c1)c1c(n2CCC2CCCCC2)CCN(C)C1
2. CN1CCc2c(c3cc(Cl)ccc3n2CC(=O)N2CC[S+]([O-])CC2)C1
3. CN1CCc2c(c3cc(Cl)ccc3n2CCc2ccncc2)C1
4. Cc1ccc2c(c1)c1c(n2CCN2CCCC2)CCN(C)C1
5. Cc1ccc2c(c1)c1c(n2CCc2cncnc2)CCN(C)C1

Data returned:
1. 92%
2. 11%
3. 92%
4. 46%
5. 54%

I need Inhibition of ligand binding, Ser. 5-HT2A for every entry listed below, if you could help.
1. CCN1CCc2c(c3ccccc3n2CCc2ccccn2)C1
2. CN1CCc2c(c3c(Cl)cccc3n2CCc2ccccc2)C1
3. Cc1ccc2c(c1)c1c(n2CCc2ccc(C)nc2)CCNC1
4. CN1CCc2c(c3ccc(Cl)cc3n2CCC2CCCCC2)C1
5. CN1CCc2c(c3cc(Cl)ccc3n2CCc2cncc(C(F)(F)F)c2)C1
6. Cc1ccc2c(c1)c1c(n2CCc2ccccc2)CCN(C(=O)OCC(Cl)(Cl)Cl)C1

Data returned:
1. 74%
2. 99%
3. 33%
4. 58%
5. 85%
6. −2%

Can you give me Inhibition of ligand binding, Ser. 5-HT2A for all of these, one by one?
1. CCN1CCc2c(c3ccccc3n2CCc2ccccc2)C1
2. Cc1ccc2c(c1)c1c(n2CCc2cncc(C(F)(F)F)c2)CCN(C)C1

Data returned:
1. 102%
2. 84%

Items follow; give Inhibition of ligand binding, Ser. 5-HT2A for each.
1. COc1ccc(CCn2c3c(c4cc(Cl)ccc42)CN(C)CC3)cc1F
2. CN1CCc2c(c3ccccc3n2CCc2ccncc2)C1

Data returned:
1. 101%
2. 69%
